Reported Inh (% of Ctl) 5 μM by item:
target: rat PGT (Rattus norvegicus (Rat), UniProt Q00910); experiment: [3H]PGE2 uptake inhibition in MDCK cells stably transfected with rat PGT (percent inhibition and IC50); format: cell-based; details: 5 μM compound; inhibition of [3H]PGE2 uptake

stdin: If you can, please state the reported Inh (% of Ctl) 5 μM value of O=C(NCCOCCOCCNc1nc(Nc2ccc(O)cc2)nc(Nc2ccc(C(=O)NCc3cccc(F)c3)cc2)n1)c1ccccc1 [compound 105] .
stdout: 92.45 % of Ctl

stdin: If you can, please state the reported Inh (% of Ctl) 5 μM value of CC(C)(NC(=O)c1ccc(Nc2nc(NCCOCCOCCNC(=O)c3ccccc3)nc(Nc3ccc(O)cc3)n2)cc1)c1ccccc1 [compound 66] .
stdout: 64.4 % of Ctl

stdin: If you can, please state the reported Inh (% of Ctl) 5 μM value of O=C(NCCOCCOCCNc1nc(Nc2ccc(O)cc2)nc(Nc2ccc(C(=O)NCc3cc(Cl)cc(Cl)c3)cc2)n1)c1ccccc1 [compound 108] .
stdout: 76.6 % of Ctl

Just for reference, patent US8952150B2 is where these values come from.
